assayed_target: serotonine (5-HT) reuptake in synaptosomes (Rattus norvegicus)
Construct: in synaptosomes as described in WO 97/16451; from tissue
assay: In vitro inhibition of serotonine (5-HT) reuptake in synaptosomes
Format: biochemical
Protocol: A number of compounds were tested for their ability to inhibit the reuptake of the monoamine neurotransmitters dopamine (DA) noradrenaline (NA) and serotonine (5-HT) in synaptosomes as described in WO 97/16451. The test values are given as IC50 (the concentration (μM) of the test substance which inhibits the specific binding of ^3H-DA, ^3H-NA, or ^3H-5-HT by 50%).
Overview of reported pIC50 across a group of molecules:
# log scale: pIC50 equals minus log10 of the concentration in mol/L

[[record]]
smiles_representation = "CN1C2CCC1CN(c1ccc3ccccc3n1)C2"
endpoint_value = 7.80


Exercise: Name the reported pIC50 value associated with the molecule `CN1C2CCC1CN(c1ccc3cc([N+](=O)[O-])ccc3n1)C2`
Solution: 8.51

* * *

assayed_target: serotonine (5-HT) reuptake in synaptosomes (Rattus norvegicus, UniProt P31652)
Construct: in synaptosomes as described in WO 97/16451; from tissue
Sequence (P31652 whole entry): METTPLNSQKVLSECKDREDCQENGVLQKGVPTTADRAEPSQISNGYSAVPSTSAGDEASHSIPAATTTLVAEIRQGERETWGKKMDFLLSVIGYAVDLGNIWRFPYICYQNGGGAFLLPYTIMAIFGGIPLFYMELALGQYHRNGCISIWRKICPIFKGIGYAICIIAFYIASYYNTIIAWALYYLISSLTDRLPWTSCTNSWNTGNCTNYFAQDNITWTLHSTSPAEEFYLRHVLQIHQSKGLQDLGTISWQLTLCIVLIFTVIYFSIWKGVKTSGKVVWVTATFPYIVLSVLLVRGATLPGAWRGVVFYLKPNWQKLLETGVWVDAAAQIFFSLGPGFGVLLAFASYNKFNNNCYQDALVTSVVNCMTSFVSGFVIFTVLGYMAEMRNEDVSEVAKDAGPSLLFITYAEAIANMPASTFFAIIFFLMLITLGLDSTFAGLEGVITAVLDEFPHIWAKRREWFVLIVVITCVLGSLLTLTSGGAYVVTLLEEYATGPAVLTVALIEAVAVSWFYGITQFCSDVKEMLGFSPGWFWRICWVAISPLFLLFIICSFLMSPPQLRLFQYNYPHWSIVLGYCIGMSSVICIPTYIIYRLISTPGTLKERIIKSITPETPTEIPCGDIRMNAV
assay: In vitro inhibition of serotonine (5-HT) reuptake in synaptosomes
Type: biochemical
condition_details: synaptosomes, 3H-5-HT; read-out: 5-HT-uptake IC50
attribute_measured: pIC50
# log scale: pIC50 equals minus log10 of the concentration in mol/L

Exercise: Name the reported pIC50 value associated with the compound `COc1ccc2cc(N3CC4CCC(C3)N4C)ccc2c1`
Solution: 7.70

* * *

assayed_target: noradrenaline (NA) reuptake in synaptosomes (Rattus norvegicus)
Construct: in synaptosomes as described in WO 97/16451; from tissue
Sequence (Q63380 1-617): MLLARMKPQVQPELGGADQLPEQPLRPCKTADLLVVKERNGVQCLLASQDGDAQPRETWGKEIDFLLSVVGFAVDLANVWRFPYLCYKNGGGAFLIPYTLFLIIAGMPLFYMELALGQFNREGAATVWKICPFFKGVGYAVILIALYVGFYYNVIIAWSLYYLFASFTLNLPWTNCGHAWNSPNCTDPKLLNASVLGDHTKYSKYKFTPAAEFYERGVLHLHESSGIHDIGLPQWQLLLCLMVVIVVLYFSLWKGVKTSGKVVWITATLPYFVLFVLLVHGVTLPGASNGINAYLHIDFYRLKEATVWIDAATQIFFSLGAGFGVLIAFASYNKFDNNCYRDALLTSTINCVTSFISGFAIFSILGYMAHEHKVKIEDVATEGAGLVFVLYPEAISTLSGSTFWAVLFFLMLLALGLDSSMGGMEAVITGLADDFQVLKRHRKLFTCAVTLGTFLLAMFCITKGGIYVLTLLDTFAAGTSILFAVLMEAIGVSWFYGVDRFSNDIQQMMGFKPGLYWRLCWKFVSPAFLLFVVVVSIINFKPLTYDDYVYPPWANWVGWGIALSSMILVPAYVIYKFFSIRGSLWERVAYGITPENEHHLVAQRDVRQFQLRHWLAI
assay: In vitro inhibition of noradrenaline (NA) reuptake in synaptosomes
Type: biochemical
condition_details: synaptosomes, 3H-NA; read-out: NA-uptake IC50
attribute_measured: IC50 (nM)
Kindly provide the numeric value in nM only, without the unit symbol.

[[record]]
smiles_representation = "CN1C2CCC1CN(c1ccc3ccccc3n1)C2"
assayed_target = "noradrenaline (NA) reuptake in synaptosomes (Rattus norvegicus)"
attribute_measured = "IC50"
scale_unit = "nM"
endpoint_value = 450


Exercise: Observed IC50 on noradrenaline (NA) reuptake in synaptosomes (Rattus norvegicus) for `CN1C2CCC1CN(c1ccc3cc([N+](=O)[O-])ccc3n1)C2` , please.
Solution: 4600

* * *

assayed_target: dopamine (DA) reuptake in synaptosomes (Rattus norvegicus, UniProt P23977)
Construct: in synaptosomes as described in WO 97/16451; from tissue
Sequence (P23977 whole entry): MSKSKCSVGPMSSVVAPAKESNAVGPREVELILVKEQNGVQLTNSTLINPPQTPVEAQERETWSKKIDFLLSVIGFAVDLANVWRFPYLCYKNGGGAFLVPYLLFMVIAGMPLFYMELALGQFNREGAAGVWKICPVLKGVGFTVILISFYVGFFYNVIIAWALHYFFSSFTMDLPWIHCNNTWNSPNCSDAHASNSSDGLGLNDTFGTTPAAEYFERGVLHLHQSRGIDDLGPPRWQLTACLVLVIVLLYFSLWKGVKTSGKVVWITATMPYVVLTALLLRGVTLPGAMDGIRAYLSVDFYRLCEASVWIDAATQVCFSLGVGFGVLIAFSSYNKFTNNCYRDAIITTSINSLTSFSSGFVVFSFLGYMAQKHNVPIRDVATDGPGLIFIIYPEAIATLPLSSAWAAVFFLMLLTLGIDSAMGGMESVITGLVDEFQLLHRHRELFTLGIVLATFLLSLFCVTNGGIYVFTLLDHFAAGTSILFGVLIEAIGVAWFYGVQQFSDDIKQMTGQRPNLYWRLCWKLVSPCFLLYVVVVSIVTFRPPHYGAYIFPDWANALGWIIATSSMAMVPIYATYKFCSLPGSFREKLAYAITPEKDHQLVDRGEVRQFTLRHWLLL
assay: In vitro inhibition of dopamine (DA) reuptake in synaptosomes
Assay type: biochemical
attribute_measured: IC50 (nM)
Kindly provide the numeric value in nM only, without the unit symbol.

Exercise: Name the reported IC50 value associated with the molecule `COc1ccc2cc(N3CC4CCC(C3)N4C)ccc2c1`
Solution: 56

* * *

Overview of reported pIC50 across a group of compounds:
assayed_target: dopamine (DA) reuptake in synaptosomes (Rattus norvegicus, UniProt P23977)
Construct: in synaptosomes as described in WO 97/16451; from tissue
assay: In vitro inhibition of dopamine (DA) reuptake in synaptosomes
Type: biochemical
condition_details: synaptosomes, 3H-DA; read-out: DA-uptake IC50
# log scale: pIC50 equals minus log10 of the concentration in mol/L

[[record]]
compound = "CN1C2CCC1CN(c1ccc3cc([N+](=O)[O-])ccc3n1)C2 [1st compound of method A]"
attribute_measured = "pIC50"
endpoint_value = 4.80


Exercise: Name the reported pIC50 value associated with the compound CN1C2CCC1CN(c1ccc3ccccc3n1)C2 [2nd compound of method A]
Solution: 5.80

Ref: patent US7704991B2
